Would you mind telling me the reported growth at 10 µM of each entry?
Tested on: K562
method_notes: Antiproliferative activity against human K562 cells assessed as cell growth at 10 uM
Assay type: functional
measurement_context: read-out: Activity
Provide the reading as a plain figure in %.

Problem: I am curious: what growth at 10 µM value has been reported for O=C1c2ccccc2C(=O)c2c1ccc1nccnc21 ?
Result: 37.2

Problem: Sample O=C1c2ccccc2C(=O)c2c1ccc1nc(-c3ccc4c(c3)OCO4)[nH]c21 — what was its growth at 10 µM?
Result: 80.6

Problem: Field request: growth at 10 µM | item: CCc1nc2ccc3c(c2[nH]1)C(=O)c1ccccc1C3=O
Result: 64.4

Problem: Endpoint output: growth at 10 µM of O=C1c2ccccc2C(=O)c2c1ccc1nc(-c3ccccc3)[nH]c21 . Value?
Result: 76

Problem: Find the recorded growth at 10 µM belonging to Cc1ccc(-c2nc3ccc4c(c3[nH]2)C(=O)c2ccccc2C4=O)cc1 and report it.
Result: 102

Problem: For CN(C)c1ccc(-c2nc3ccc4c(c3[nH]2)C(=O)c2ccccc2C4=O)cc1 , what is its reported growth at 10 µM?
Result: 96.1

Problem: # get_value(readout='growth at 10 µM', item= N#Cc1ccc(-c2nc3ccc4c(c3[nH]2)C(=O)c2ccccc2C4=O)cc1 )
Result: 54.9

Problem: # growth at 10 µM lookup, item O=C1c2ccccc2C(=O)c2c1ccc1nc(-c3ccc(Br)cc3)[nH]c21
Result: 109

Problem: Given the entry CC1(C)Nc2ccc3c(c2N1)C(=O)c1ccccc1C3=O , report its measured growth at 10 µM.
Result: 101

Problem: # get_value(readout='growth at 10 µM', item= O=C1c2ccccc2C(=O)c2c1ccc1nsnc21 )
Result: 49.6

Problem: Could you tell me which growth at 10 µM is on file for COc1cc(-c2nc3ccc4c(c3[nH]2)C(=O)c2ccccc2C4=O)ccc1O ?
Result: 95.5
